The reported measurements were obtained from ChEMBL document CHEMBL1150463.

# protocolText: In vitro affinity for the neurotensin receptor on mouse brain membranes.
# Format: tissue-based
Where a SMILES comes first, the peptide text is derived from it. [ ]: non-standard residue; d: D form. Nva = CCC[C@H](N)C(=O)O
What pKi was measured for each of the following?
Give bare numbers, as −log10 of the molar value.

# molecule, pKi
measured = [
    ("CC[C@@H](C)[C@H](NC(=O)[C@H](Cc1ccc(O)cc1)NC(=O)[C@@H]1CCCN1C(=O)[C@H](CCCNC(=N)N)NC(=O)[C@@H](N)CCCNC(=N)N)C(=O)N[C@@H](CC(C)C)C(=O)O", 8.40),
]

Moving on to another molecule below.
Kindly indicate its recorded pKi. Item: CCC[C@H](N)C(=O)N1CCC[C@H]1C(=O)N[C@@H](Cc1ccc(O)cc1)C(=O)N[C@H](C(=O)N[C@@H](CC(C)C)C(=O)O)[C@@H](C)CC (H-[Nva]PYIL-OH) 5.52

###

# protocolText: In vitro affinity for the neurotensin receptor on mouse brain membranes.
# Format: tissue-based
Where a SMILES comes first, the peptide text is derived from it. [ ]: non-standard residue; d: D form. Orn = NCCC[C@H](N)C(=O)O; Ahx = NCCCCCC(=O)O
Provide the recorded Ki for the entries that follow.

Example compounds with recorded Ki:
# compound, observed
rows = [
    ("CC[C@H](C)[C@H](NC(=O)[C@H](Cc1ccc(O)cc1)NC(=O)[C@@H]1CCCN1C(=O)[C@@H](N)CCCN)C(=O)N[C@@H](CC(C)C)C(=O)O (H-[Orn]PYIL-OH)", "0.52 µM"),
    ("CC[C@H](C)[C@H](NC(=O)[C@H](Cc1ccc(O)cc1)NC(=O)[C@@H]1CCCN1C(=O)CCCCCN)C(=O)N[C@@H](CC(C)C)C(=O)O (H-[Ahx]PYIL-OH)", "1.3 µM"),
    ("CC[C@H](C)[C@H](NC(=O)[C@@H](N)Cc1ccc(O)cc1)C(=O)O (H-Tyr-Ile-OH)", "> 1 µM"),
    ("NC(N)=NCCC[C@H](NC(=O)[C@@H](N)CCCN=C(N)N)C(=O)O (H-Arg-Arg-OH)", "> 100 µM"),
    ("CC[C@H](C)[C@H](NC(=O)[C@@H](N)Cc1ccc(O)cc1)C(=O)N[C@@H](CC(C)C)C(=O)O", "> 10 µM"),
]

// for each compound in input: emit Ki
1. CC[C@H](C)[C@H](NC(=O)[C@H](Cc1ccc(O)cc1)NC(=O)[C@@H]1CCCN1C(=O)[C@@H](N)CCCN=C(N)N)C(=O)N[C@@H](CC(C)C)C(=O)O
2. CC[C@H](C)[C@H](NC(=O)[C@H](Cc1ccc(O)cc1)NC(=O)[C@@H]1CCCN1C(=O)[C@@H](N)CCCN=C(N)N)C(=O)O (H-RPYI-OH)
3. NC(N)=NCCC[C@H](N)C(=O)N1CCC[C@H]1C(=O)O (H-Arg-Pro-OH)

1. 0.073 µM
2. > 1 µM
3. > 10 µM

###

# protocolText: In vitro affinity for the neurotensin receptor on mouse brain membranes.
# Assay type: tissue-based
Where a SMILES comes first, the peptide text is derived from it. The star is where a group is joined. X1 = CC(C)CCO*
testReadout: Ki

Worked set:
# compound, Ki
data = [
    ("CC[C@H](C)[C@H](NC(=O)[C@H](Cc1ccc(O)cc1)NC(=O)[C@@H]1CCCN1C(=O)[C@@H](N)CCCCN)C(=O)OCCC(C)C (H-KPYI-X1)", "> 10 µM"),
    ("O=C(O)[C@H](Cc1ccc(O)cc1)NC(=O)[C@@H]1CCCN1 (H-Pro-Tyr-OH)", "13 µM"),
    ("CC[C@H](C)[C@H](NC(=O)[C@H](Cc1ccc(O)cc1)NC(=O)[C@@H]1CCCN1)C(=O)N[C@@H](CC(C)C)C(=O)O (H-PYIL-OH)", "> 1 µM"),
    ("NC(N)=NCCC[C@H](N)C(=O)N1CCC[C@H]1C(=O)N[C@@H](Cc1ccc(O)cc1)C(=O)O (H-Arg-Pro-Tyr-OH)", "> 10 µM"),
]

Continue with the compound presented below.
Return reported Ki. Input compound: CC[C@@H](C)[C@H](NC(=O)[C@H](Cc1ccc(O)cc1)NC(=O)[C@@H]1CCCN1)C(=O)O > 1 µM
